Hi there, I'd appreciate the recorded IC50 for every entry that follows.
Just the number please, in nM, no unit attached.

Please look at O=C(O)[C@@H]1[C@@H](Cn2nnc3ccc(C(F)(F)F)cc3c2=O)CC[C@H]1C(=O)c1ccc(OCCC2CCCCC2)cc1 (single isomer, unassigned) [Example 52] and tell me its recorded IC50 on MMP-9 (Homo sapiens, UniProt P14780).
Sequence (P14780 107-707 limits assumed): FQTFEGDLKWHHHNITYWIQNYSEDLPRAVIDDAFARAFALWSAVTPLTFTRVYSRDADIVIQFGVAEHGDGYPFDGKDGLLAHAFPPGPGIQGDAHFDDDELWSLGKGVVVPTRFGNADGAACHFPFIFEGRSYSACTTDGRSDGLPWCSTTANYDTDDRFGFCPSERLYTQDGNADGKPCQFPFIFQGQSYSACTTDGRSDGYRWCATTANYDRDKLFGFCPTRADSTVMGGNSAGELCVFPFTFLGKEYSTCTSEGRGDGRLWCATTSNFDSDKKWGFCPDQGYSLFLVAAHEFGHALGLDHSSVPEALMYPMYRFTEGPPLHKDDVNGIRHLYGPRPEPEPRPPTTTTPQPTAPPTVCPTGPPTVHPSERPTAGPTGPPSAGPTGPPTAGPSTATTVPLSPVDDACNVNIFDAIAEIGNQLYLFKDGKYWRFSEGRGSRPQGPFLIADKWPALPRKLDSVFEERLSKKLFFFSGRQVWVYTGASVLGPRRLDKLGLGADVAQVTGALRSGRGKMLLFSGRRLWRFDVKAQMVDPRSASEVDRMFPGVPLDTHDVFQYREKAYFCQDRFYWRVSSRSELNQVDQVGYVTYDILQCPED
830

Please look at O=C(O)[C@H]1[C@H](Cn2nnc3ccccc3c2=O)CC[C@@H]1C(=O)c1ccc(OCc2ccc(Cl)c(Cl)c2)cc1 (racemic) [Example 3] and tell me its recorded IC50 on MMP-9 (Homo sapiens, UniProt P14780).
900

Please look at Cc1cccc(COc2ccc(C(=O)[C@@H]3CC[C@H](Cn4nnc5ccc(C(F)(F)F)cc5c4=O)[C@H]3C(=O)O)cc2)c1 (single isomer, unassigned) [Example 16] and tell me its recorded IC50 on MMP-9 (Homo sapiens, UniProt P14780).
440

Please look at O=C(O)[C@@H]1[C@@H](Cn2nnc3ccc(C(F)(F)F)cc3c2=O)CC[C@H]1C(=O)c1ccc(OCc2ccc(F)cc2)cc1 (single isomer, unassigned) [Example 13] and tell me its recorded IC50 on MMP-9 (Homo sapiens, UniProt P14780).
4.4

Please look at O=C(O)[C@H]1[C@H](Cn2nnc3ccc(C(F)(F)F)cc3c2=O)CC[C@@H]1C(=O)c1ccc(OCc2ccccc2)cc1 (racemic) [Example 11] and tell me its recorded IC50 on MMP-9 (Homo sapiens, UniProt P14780).
18
